Origin of measurements: patent US10752584B2

Please provide measured EC50 for the entries that follow.
# Tested on: wild type HBV
# Protocol notes: Anti-HBV assay in AD-38 cell line
# Type: cell-based
# Experimental parameters: Hepatitis B virus; AD-38 cells, HBV in culture supernatant; read-out: Anti-HBV activity EC50

Check out these entries, answers already filled in.
In [3]: df
Out[3]:
                            chemical_smiles   experimental_value
0  Cc1c(C(=O)C(=O)Nc2nc3ccccc3[nH]2)c(C)n(C)c1C(=O)Nc1ccc(F)c(F)c1        0.1 to 0.9 µM
1  Cc1c(C(=O)C(=O)NCC#Cc2nccn2C)c(C)n(C)c1C(=O)Nc1ccc(F)c(F)c1            1 to 9 µM
2  C=CCNC(=O)C(=O)c1c(C)c(C(=O)Nc2ccc(F)c(F)c2)n(C)c1C    0.001 to 0.009 µM
3  C#CCNC(=O)C(=O)c1c(C)c(C(=O)Nc2cccc(S(F)(F)(F)(F)F)c2)n(C)c1C        0.1 to 0.9 µM
4  C#CCNC(=O)C(=O)c1c(C)c(C(=O)Nc2ccc(F)c(C)c2)n(C)c1C  0.0001 to 0.0009 µM
5  Cc1c(C(=O)C(=O)NCc2nccn2C)c(C)n(C)c1C(=O)Nc1ccc(F)c(F)c1    0.001 to 0.009 µM
6  Cn1cc(C(=O)C(=O)Nc2ccccc2)cc1C(=O)Nc1ccc(F)c(F)c1      0.01 to 0.09 µM
7  Cn1cc(C(=O)C(=O)N2CCOCC2)cc1C(=O)Nc1ccc(F)c(F)c1      0.01 to 0.09 µM
8  C#CCNC(=O)C(=O)c1c(C)c(C(=O)Nc2ccc(OC(F)(F)F)cc2)n(C)c1C            1 to 9 µM
9  C#CCNC(=O)C(=O)c1c(C)c(C(=O)Nc2cncnc2)n(C)c1C            1 to 9 µM

Go through the list and state EC50 for each entry.
1. C#CCNC(=O)C(=O)c1c(C)c(C(=O)Nc2ccncc2)n(C)c1C
2. Cc1c(C(=O)C(=O)NCc2c[nH]nn2)c(C)n(C)c1C(=O)Nc1ccc(F)c(F)c1
3. Cc1c(C(=O)C(=O)Nc2nccs2)c(C)n(C)c1C(=O)Nc1ccc(F)c(F)c1
4. Cn1cc(C(=O)C(=O)NOC2CCCC2)cc1C(=O)Nc1ccc(F)c(F)c1

a:
0.1 to 0.9 µM
0.001 to 0.009 µM
0.001 to 0.009 µM
0.01 to 0.09 µM
